# Test system: SF-268 CNS
# TEST: NCI-60 one-dose screen, 48 h (100 = growth as untreated, 0 = no growth, -100 = all killed)
# MEASUREMENT_SETUP: 10 µM unless noted
The panel holds about 83,000 compounds, 20% with a hit somewhere; the sample as a whole holds those more often.
Consider the cut-off 60%. If the recorded growth is strictly smaller, the label is y; if not, the label is n.

{"columns": ["COMPOUND", "EXPERIMENTAL_TARGET", "ASSIGNED_CLASS"],
 "data": [
  ["Cc1ccc(-c2csc(NC(=O)CCCCl)n2)cc1", "SF-268 CNS", "n"],
  ["CC1CN(c2oc(-c3ccccc3)nc2C#N)CC(C)O1 (configuration not stated)", "SF-268 CNS", "n"],
  ["ClC(Cl)c1nc(-c2cccnc2)n2nc(-c3ccccc3)cc2n1", "SF-268 CNS", "y"],
  ["COc1cccc(/C=C/C(=O)Nc2cc(OC)c3c(c2)OCO3)c1", "SF-268 CNS", "n"],
  ["COc1ccc(-c2[nH]nc(N)c2-c2cc(OC)c3c(c2)OCO3)cc1", "SF-268 CNS", "n"],
  ["O=C(Nc1ccc2c(c1)OCO2)C(=O)c1c[nH]c2cc(F)ccc12", "SF-268 CNS", "y"],
  ["NNc1cccc(/C=C/c2ccccc2)cc1=O", "SF-268 CNS", "y"],
  ["C=C1CCC[C@]2(C)CCC[C@H](C)[C@@H](OC(C)=O)[C@@H]3OC(=O)C(=C)[C@@H]3C[C@H]1O2", "SF-268 CNS", "n"],
  ["O=C(Nc1cccc(-n2cc(-c3ccncc3)c(-c3ccc(Cl)c(O)c3)n2)c1)Nc1ccc(Cl)c(Cl)c1", "SF-268 CNS", "y"],
  ["O=[N+]([O-])c1cccc(-c2nc3sccn3c2-c2ccnc(NCCCNS(=O)(=O)c3ccc(C(F)(F)F)cc3)n2)c1", "SF-268 CNS", "y"],
  ["Nc1nnc(-c2ccc3ccccc3c2O)o1", "SF-268 CNS", "n"],
  ["CN(C)CCCC(C#N)c1ccccc1 (configuration not stated)", "SF-268 CNS", "n"],
  ["Oc1ccc2cc(Br)ccc2c1-c1c(O)ccc2cc(Br)ccc12", "SF-268 CNS", "y"],
  ["COc1cc(-c2nn(-c3cccc(NC(=O)c4ccccc4)c3)cc2-c2ccncc2)ccc1Cl", "SF-268 CNS", "y"],
  ["CC12CCCC(CC(=O)c3[nH]c4ccccc4c31)C2 (configuration not stated)", "SF-268 CNS", "n"],
  ["CCCCCCCCCCCCCCCCNC(=O)OC(C)C", "SF-268 CNS", "n"],
  ["COc1cc(/C=C/C(=O)c2c(C)nc3ccccc3c2C)ccc1OCCCCOc1cc2c(cc1OC)C(=O)N1CCC[C@H]1C=N2", "SF-268 CNS", "y"],
  ["CCOC(=O)NNC(=S)Nc1ccccc1", "SF-268 CNS", "n"],
  ["Cc1ccc(S(=O)(=O)NCCNc2cc(-c3cn(C(C)(C)C)nc3-c3cccc(O)c3)ccn2)cc1", "SF-268 CNS", "n"],
  ["ClC(Cl)c1nc(-c2ccccc2)nc2cc(-c3ccccc3)nn12", "SF-268 CNS", "y"],
  ["COc1cc(/C=N\\NC(=O)CN2CCN(c3cc4c(cc3F)c(=O)c(C(=O)N/N=C/c3cc(OC)c(OC)c(OC)c3)cn4C3CC3)CC2)cc(OC)c1OC", "SF-268 CNS", "y"],
  ["O=[N+]([O-])c1cc(Cl)c2[nH]c3c(Cl)cc([N+](=O)[O-])cc3c2c1", "SF-268 CNS", "y"],
  ["Cc1ccc(S(=O)(=O)C2=C3C(=C(c4ccccc4)c4ccccc43)CN(S(=O)(=O)c3ccc(C)cc3)C2)cc1", "SF-268 CNS", "y"],
  ["COc1ccc(N=Cc2c(O)ccc3c2oc2cc(Cl)c(O)c(Cl)c23)cc1", "SF-268 CNS", "n"],
  ["COc1cc(-c2nn(-c3cccc(NC(=O)c4cccc(C(F)(F)F)c4)c3)cc2-c2ccncc2)ccc1Cl", "SF-268 CNS", "y"],
  ["COc1ccc(-c2ccc(-c3ccc(C(=N)N)s3)s2)cc1Cl", "SF-268 CNS", "n"],
  ["C=C(C)[C@@H]1C[C@@H]2Cc3cc(F)ccc3N1O2", "SF-268 CNS", "n"],
  ["CC(C)CC1NC(C)(C)CO1 (configuration not stated)", "SF-268 CNS", "n"],
  ["O=Nc1c(-c2cccc([N+](=O)[O-])c2)nc2ncccn12", "SF-268 CNS", "n"],
  ["Nc1cccc(-c2nc3sccn3c2-c2ccnc(NCCNS(=O)(=O)c3ccc(C(F)(F)F)cc3)n2)c1", "SF-268 CNS", "y"],
  ["CC(C)OC(=O)N1CCOCC1", "SF-268 CNS", "n"],
  ["C1=Cc2ccccc2N(c2nnc(-c3ccccc3)o2)c2ccccc21", "SF-268 CNS", "n"],
  ["O=C(NNC(=O)N1c2ccccc2C=Cc2ccccc21)c1ccccc1", "SF-268 CNS", "n"],
  ["Clc1ccccc1-c1nc2ccccc2[nH]1", "SF-268 CNS", "n"],
  ["NC(N)=N/N=C/c1ccc(-c2ccc(-c3cc(Cl)cc(Cl)c3)s2)cc1", "SF-268 CNS", "n"],
  ["O=[N+]([O-])c1cc(S(=O)(=O)Oc2ccccc2)ccc1Cl", "SF-268 CNS", "y"],
  ["O=[N+]([O-])c1ccc(C(c2ccccc2)c2ccccc2)cc1", "SF-268 CNS", "n"],
  ["COc1cccc(/C=C2\\Oc3cc(OCCCN4CCCC4)ccc3C2=O)c1OC", "SF-268 CNS", "n"],
  ["CC(C)(C)Nc1c(-c2cccs2)nc2ncccn12", "SF-268 CNS", "n"],
  ["COC(=O)c1nc(-c2ccccc2)oc1S(=O)(=O)N1CCN(c2cccc(Cl)c2)CC1", "SF-268 CNS", "n"],
  ["C=C1C(=O)O[C@H]2[C@H]1CC/C(Cn1cc(-c3cccc(Cl)c3)nn1)=C\\CC[C@@]1(C)O[C@@H]21", "SF-268 CNS", "y"]
]}

---

# Test system: SK-MEL-5 melanoma
# TEST: NCI-60 one-dose screen, 48 h
# MEASUREMENT_SETUP: 10 µM unless noted
Compounds without any hit were thinned out: in the full panel of roughly 83,000, 20% have a hit. The source made the active and inactive calls. How the source made its calls: active means growth percent below 10; inactive means the rest.
Possible outcomes: YES = active, NO = inactive

{"columns": ["COMPOUND", "EXPERIMENTAL_TARGET", "ASSIGNED_CLASS"],
 "data": [
  ["COc1ccc(Nc2[nH]n3c(=O)cc(-c4ccccc4)nc3c2C(=O)Nc2ccc(C)cc2)c(OC)c1", "SK-MEL-5 melanoma", "NO"],
  ["COc1cc(Nc2nc(N[C@H]3CCCC[C@@H]3N)nc3cc[nH]c(=O)c23)cc(OC)c1", "SK-MEL-5 melanoma", "NO"],
  ["O=C(/C=C/c1c[nH]c2ccccc12)c1ccc(O)c(CN2CCN(c3ccc(F)cc3)CC2)c1", "SK-MEL-5 melanoma", "NO"],
  ["CC(C)(C)n1cc(-c2ccnc(NCCCNS(=O)(=O)c3ccccc3)c2)c(-c2cccc(O)c2)n1", "SK-MEL-5 melanoma", "NO"],
  ["COc1ccc(-c2nc(/C=N/Nc3cc(C)nc4ccc(Br)cc34)c(C)o2)cc1", "SK-MEL-5 melanoma", "NO"],
  ["COc1ccc(C(=O)N2NC(=O)/C(=C/c3ccc(F)cc3)N=C2c2ccccc2)cc1", "SK-MEL-5 melanoma", "NO"],
  ["CC(O)CN1CCCCC1 (configuration not stated)", "SK-MEL-5 melanoma", "NO"],
  ["COc1cc(-c2nn(-c3cccc(NC(=O)c4ccc(N5CCOCC5)c(C(F)(F)F)c4)c3)cc2-c2ccncc2)ccc1Cl", "SK-MEL-5 melanoma", "YES"],
  ["COc1ccc(Nc2nn3c(-c4ccccc4)cc(-c4ccccc4)nc3c2C(N)=O)c(OC)c1", "SK-MEL-5 melanoma", "NO"],
  ["CCOC(=O)NNC(=S)Nc1ccccc1", "SK-MEL-5 melanoma", "NO"],
  ["O=C(O)Cc1cccc(=O)c(O)c1C(=O)O", "SK-MEL-5 melanoma", "NO"],
  ["CC(C)C(C(=O)NCCN1CCOCC1)N1C(=O)/C(=C/c2ccc(Br)cc2)SC1=S (configuration not stated)", "SK-MEL-5 melanoma", "NO"],
  ["S=C1CC(=S)NC(=S)N1", "SK-MEL-5 melanoma", "NO"],
  ["CCOC(=O)C1CCNC(=O)C1=O (configuration not stated)", "SK-MEL-5 melanoma", "NO"],
  ["COc1ccc(/C=C(\\C#N)c2cc(OC)c3c(c2)OCO3)cc1", "SK-MEL-5 melanoma", "YES"],
  ["CC(C)(C)N1CCC1C(N)=O (configuration not stated)", "SK-MEL-5 melanoma", "NO"],
  ["c1ccc(Nc2nc(Nc3ccccc3)nc(Nc3ccccc3)n2)cc1", "SK-MEL-5 melanoma", "NO"],
  ["COc1ccc(C(=O)N2NC(=O)/C(=C/c3ccccc3F)N=C2c2ccccc2)cc1", "SK-MEL-5 melanoma", "NO"],
  ["Cc1csc(NC(c2ccccc2)c2c(C)nc3ccccn23)n1 (configuration not stated)", "SK-MEL-5 melanoma", "NO"],
  ["CCC1=CCC[C@@]2(C)CCC[C@@]3(C)CCCC(C)(C)[C@]1([O-])[O+]32", "SK-MEL-5 melanoma", "NO"],
  ["CCOC(=O)c1cn2c3c(cccc3c1=O)C(=O)/C(=C/c1cccc(Cl)c1Cl)C2", "SK-MEL-5 melanoma", "NO"],
  ["COc1ccc2c(c1)[nH]c(=O)c1c3cccc(F)c3cn21", "SK-MEL-5 melanoma", "NO"]
]}
